target: Feline FcRn complex (FcRn-alpha subunit and beta-microglobulin) (feline); assay: SPR (Biacore), feline FcRn captured on SA chip, IgG flowed over, pH 7.4
endpoint.name: pKd
In textbook form, pKd equals minus log to base ten of the concentration in mol/L.

| binder | pKd |
| --- | --- |
| feline IgG1a Fc mutant S428M, S252Y (antibody, part only; not given: Variable domains, not shown: another chain or arm of the molecule; small tags and cut ends) constant: ASTTAPSVFPLAPSCGTTSGATVALACLVLGYFPEPVTVSWNSGALTSGVHTFPAVLQASGLYSLSSMVTVPSSRWLSDTFTCNVAHPPSNTKVDKTVRKTDHPPGPKPCDCPKCPPPEMLGGPSIFIFPPKPKDTLYISRTPEVTCLVVDLGPDDSDVQITWFVDNTQVYTAKTSPREEQFNSTYRVVSVLPILHQDWLKGKEFKCKVNSKSLPSPIERTISKAKGQPHEPQVYVLPPAQEELSRNKVSVTCLIKSFHPPDIAVEWEITGQPEPENNYRTTPPQLDSDGTYFVYSKLSVDRSHWQRGNTYTCSVMHEALHSHHTQKSLTQSPGK | 6.91 |
| feline IgG1a Fc mutant S428M, S434F (antibody, part only; not given: variable domains and light chain, not shown: another chain or arm of the molecule; small tags and cut ends) constant: ASTTAPSVFPLAPSCGTTSGATVALACLVLGYFPEPVTVSWNSGALTSGVHTFPAVLQASGLYSLSSMVTVPSSRWLSDTFTCNVAHPPSNTKVDKTVRKTDHPPGPKPCDCPKCPPPEMLGGPSIFIFPPKPKDTLSISRTPEVTCLVVDLGPDDSDVQITWFVDNTQVYTAKTSPREEQFNSTYRVVSVLPILHQDWLKGKEFKCKVNSKSLPSPIERTISKAKGQPHEPQVYVLPPAQEELSRNKVSVTCLIKSFHPPDIAVEWEITGQPEPENNYRTTPPQLDSDGTYFVYSKLSVDRSHWQRGNTYTCSVMHEALHFHHTQKSLTQSPGK | 7.42 |
| feline IgG1a Fc mutant S428M, S434Y (antibody, part only; not given: Variable domains, not shown: another chain or arm of the molecule; small tags and cut ends) constant: ASTTAPSVFPLAPSCGTTSGATVALACLVLGYFPEPVTVSWNSGALTSGVHTFPAVLQASGLYSLSSMVTVPSSRWLSDTFTCNVAHPPSNTKVDKTVRKTDHPPGPKPCDCPKCPPPEMLGGPSIFIFPPKPKDTLSISRTPEVTCLVVDLGPDDSDVQITWFVDNTQVYTAKTSPREEQFNSTYRVVSVLPILHQDWLKGKEFKCKVNSKSLPSPIERTISKAKGQPHEPQVYVLPPAQEELSRNKVSVTCLIKSFHPPDIAVEWEITGQPEPENNYRTTPPQLDSDGTYFVYSKLSVDRSHWQRGNTYTCSVMHEALHYHHTQKSLTQSPGK | 7.60 |

Shifting focus to the binder that follows.
[Q] Which pKd is listed for feline IgG1a Fc mutant S428Y, S434F (antibody, part only; not given: Variable domains, not shown: another chain or arm of the molecule; small tags and cut ends) constant: ASTTAPSVFPLAPSCGTTSGATVALACLVLGYFPEPVTVSWNSGALTSGVHTFPAVLQASGLYSLSSMVTVPSSRWLSDTFTCNVAHPPSNTKVDKTVRKTDHPPGPKPCDCPKCPPPEMLGGPSIFIFPPKPKDTLSISRTPEVTCLVVDLGPDDSDVQITWFVDNTQVYTAKTSPREEQFNSTYRVVSVLPILHQDWLKGKEFKCKVNSKSLPSPIERTISKAKGQPHEPQVYVLPPAQEELSRNKVSVTCLIKSFHPPDIAVEWEITGQPEPENNYRTTPPQLDSDGTYFVYSKLSVDRSHWQRGNTYTCSVYHEALHFHHTQKSLTQSPGK ?
[A] 7.40

# credit: patent US20240400708A1
